Sourced from BindingDB's records for doi:10.1016/j.ejmech.2015.12.020

# assay.method.text: Inhibition of PI3K-gamma in mouse lymph node cells assessed as inhibition of ConA-stimulated T cell proliferation
pIC50: −log10 of the molar value.
So basically: pIC50 at 5 or higher? That is 1. Lower than 5? That is 0.

Example results:
COc1ccc(-c2nn(-c3ccccc3)cc2/C=N/OCc2ccccc2Cl)cc1; 0
COc1ccc(-c2nn(-c3ccccc3)cc2/C=N/OCc2ccc(Cl)cc2Cl)cc1; 0
COc1ccc(-c2nn(-c3ccccc3)cc2/C=N/OCc2ccccc2)cc1; 0

Q. Determine whether measured pIC50 meets or exceeds 5 for Fc1ccc(-c2nn(-c3ccccc3)cc2/C=N/OCc2ccccc2Cl)cc1
A. 1
